- assayTarget: T1, biotin-labelled EZH2 protein (UniProt Q15910 1-746, limits assumed, biotin label (EZ-link NHS-PEO4-Biotinylation kit))
- T1 construct: Probe in solution (1 ug/ml) on the KDM2B peptide microarray; also called NHS-PEO4-Biotinylation-labelled EZH2 protein; recombinant protein
- T1 sequence (Q15910 whole entry): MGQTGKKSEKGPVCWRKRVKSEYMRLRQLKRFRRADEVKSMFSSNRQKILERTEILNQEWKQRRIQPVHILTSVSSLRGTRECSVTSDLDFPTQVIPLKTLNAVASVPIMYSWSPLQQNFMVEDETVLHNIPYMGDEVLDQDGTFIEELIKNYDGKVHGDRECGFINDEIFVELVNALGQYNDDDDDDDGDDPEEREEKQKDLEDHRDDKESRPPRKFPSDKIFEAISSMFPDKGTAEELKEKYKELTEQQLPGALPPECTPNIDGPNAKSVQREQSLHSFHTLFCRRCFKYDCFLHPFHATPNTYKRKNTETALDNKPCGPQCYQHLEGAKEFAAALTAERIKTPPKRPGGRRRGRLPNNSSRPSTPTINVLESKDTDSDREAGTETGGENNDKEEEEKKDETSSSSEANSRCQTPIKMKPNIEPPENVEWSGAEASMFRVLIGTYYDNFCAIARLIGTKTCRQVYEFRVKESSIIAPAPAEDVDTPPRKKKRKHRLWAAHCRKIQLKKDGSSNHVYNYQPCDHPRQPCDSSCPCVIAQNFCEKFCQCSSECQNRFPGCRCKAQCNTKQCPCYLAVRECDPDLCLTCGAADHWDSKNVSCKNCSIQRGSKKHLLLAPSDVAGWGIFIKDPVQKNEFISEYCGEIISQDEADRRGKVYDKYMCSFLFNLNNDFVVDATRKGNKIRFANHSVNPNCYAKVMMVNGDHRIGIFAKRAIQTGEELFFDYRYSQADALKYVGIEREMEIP
- assayComment: KDM2B peptide array probed with biotin-EZH2 1 ug/ml, SA-HRP/ECL; Remark: noise;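 further: 100% is the highest background-corrected spot optical density on the membrane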
reportedProperty: Intensity (%)
Write the value in % as a bare number.

ALGKKPKAPALRFLK [peptide 92]: 0

Using the record for TDASLRLIIRHMPLL [peptide 246] , report its Intensity (%).
0

EMCWYVLERYVYCVT [peptide 73] ?
0.19

LSFFKRCGNICHIDL [peptide 258] ?
0.72
